# Tgt: human F508del CFTR (Homo sapiens, UniProt P13569, DEL508-508)
# Construct: expressed in transfected cells
# Sequence (P13569 with tags, fused parts or gaps DEL508-508): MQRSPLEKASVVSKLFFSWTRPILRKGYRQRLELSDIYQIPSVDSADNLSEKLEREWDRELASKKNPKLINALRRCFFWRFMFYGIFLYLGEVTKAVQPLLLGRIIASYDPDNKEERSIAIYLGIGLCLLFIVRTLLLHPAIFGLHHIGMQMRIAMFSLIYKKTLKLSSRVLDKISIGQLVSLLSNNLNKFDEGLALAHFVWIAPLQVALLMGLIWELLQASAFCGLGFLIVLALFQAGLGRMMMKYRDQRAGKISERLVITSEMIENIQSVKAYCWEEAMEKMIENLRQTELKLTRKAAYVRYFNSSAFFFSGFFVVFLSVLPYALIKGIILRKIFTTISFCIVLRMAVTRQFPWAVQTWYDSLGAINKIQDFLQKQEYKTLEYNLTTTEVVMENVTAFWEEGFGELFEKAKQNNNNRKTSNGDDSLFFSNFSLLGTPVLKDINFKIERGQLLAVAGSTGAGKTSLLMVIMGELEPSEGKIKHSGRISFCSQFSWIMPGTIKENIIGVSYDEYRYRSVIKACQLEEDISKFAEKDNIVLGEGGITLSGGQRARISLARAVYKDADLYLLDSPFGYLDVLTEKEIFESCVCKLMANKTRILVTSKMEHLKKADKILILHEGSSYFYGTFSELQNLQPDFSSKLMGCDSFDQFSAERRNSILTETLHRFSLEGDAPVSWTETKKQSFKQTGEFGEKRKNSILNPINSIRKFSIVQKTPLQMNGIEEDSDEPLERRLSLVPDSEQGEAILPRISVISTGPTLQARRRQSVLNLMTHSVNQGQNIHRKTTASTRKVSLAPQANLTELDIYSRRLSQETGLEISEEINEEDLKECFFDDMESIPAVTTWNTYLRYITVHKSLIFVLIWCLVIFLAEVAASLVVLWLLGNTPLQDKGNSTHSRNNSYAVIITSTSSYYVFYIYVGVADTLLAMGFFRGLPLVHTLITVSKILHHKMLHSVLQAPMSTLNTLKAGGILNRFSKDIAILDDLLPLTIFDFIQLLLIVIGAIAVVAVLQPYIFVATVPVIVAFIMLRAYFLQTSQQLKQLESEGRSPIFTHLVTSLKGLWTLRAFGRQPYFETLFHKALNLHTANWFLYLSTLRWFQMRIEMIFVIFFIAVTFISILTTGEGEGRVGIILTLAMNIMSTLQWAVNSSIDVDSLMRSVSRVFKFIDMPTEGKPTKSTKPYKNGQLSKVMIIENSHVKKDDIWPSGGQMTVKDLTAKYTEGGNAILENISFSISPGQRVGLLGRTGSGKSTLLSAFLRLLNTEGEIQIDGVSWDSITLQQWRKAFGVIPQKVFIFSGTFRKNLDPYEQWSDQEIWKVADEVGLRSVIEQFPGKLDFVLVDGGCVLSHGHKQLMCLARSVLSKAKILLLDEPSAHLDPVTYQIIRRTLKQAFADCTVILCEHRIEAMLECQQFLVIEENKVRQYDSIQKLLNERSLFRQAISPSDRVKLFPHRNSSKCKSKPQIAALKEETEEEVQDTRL
# Procedure Details: CFTR-YFP Assay, CFTR Corrector Protocol (YFP flux assay)
# Format: cell-based
# Experimental Setup: normalized to the positive control, read-out: EMAX (% Efficacy, EMAX normalized to the positive control)
Measured Emax values are reported for all entries that follow.

{"Mol": "O=S(=O)(c1ccc2c(c1)OCO2)N1CCC(n2c(-c3cccnc3F)nc3cccnc32)CC1", "Emax": "10 to 30%"}
{"Mol": "CCc1ccc(S(=O)(=O)N2CCC(n3c(-c4ncccc4Cl)nc4cccnc43)CC2)cc1", "Emax": "30 to 80%"}
{"Mol": "CCc1ccc(S(=O)(=O)N2CCC(N(c3cccc(C)c3)S(=O)(=O)c3ccccc3Cl)CC2)cc1", "Emax": "30 to 80%"}
{"Mol": "CCc1ccc(N(C(=O)c2ccccc2Cl)C2CCN(S(=O)(=O)c3ccc(CC)cc3)CC2)cc1", "Emax": "30 to 80%"}
{"Mol": "COc1ccc2c(c1)nc(-c1ccncc1F)n2C1CCN(S(=O)(=O)c2ccc3c(c2)OC(F)(F)O3)CC1", "Emax": "30 to 80%"}
{"Mol": "O=S(=O)(c1ccc2c(c1)OC(F)(F)O2)N1CCC(n2c(-c3ccccc3F)nc3cccnc32)CC1", "Emax": "30 to 80%"}
{"Mol": "CCc1ccc(S(=O)(=O)N2CCC(n3c(-c4ccncc4Cl)nc4ccc(OC)nc43)CC2)cc1", "Emax": "30 to 80%"}
{"Mol": "Cc1ccc(S(=O)(=O)N2CCC(n3c(-c4ccccc4)nc4ccc(C)nc43)CC2)cc1", "Emax": "30 to 80%"}
{"Mol": "Cc1ccc2nc(-c3ccncc3F)n(C3CCN(S(=O)(=O)c4ccc5c(c4)OC(F)(F)O5)CC3)c2n1", "Emax": "> 80%"}
{"Mol": "COc1ccc2c(c1)nc(-c1ccncc1F)n2C1CCN(S(=O)(=O)c2ccc3nc(C)oc3c2)CC1", "Emax": "> 80%"}
{"Mol": "CCc1ccc(S(=O)(=O)N2CCC(N(c3ccc(OC)cc3)S(=O)(=O)c3ccccc3Cl)CC2)cc1", "Emax": "10 to 30%"}
{"Mol": "CCc1ccc(S(=O)(=O)N2CCC(N(c3cccc(OC)n3)S(=O)(=O)c3ccccc3Cl)CC2)cc1", "Emax": "10 to 30%"}
{"Mol": "O=S(=O)(c1ccc2c(c1)OC(F)(F)O2)N1CCC(n2c(-c3ccncc3Cl)nc3ncccc32)CC1", "Emax": "30 to 80%"}
{"Mol": "CCc1ccc(S(=O)(=O)N2CCC(N(c3ccccn3)S(=O)(=O)c3ccccc3)CC2)cc1", "Emax": "30 to 80%"}
{"Mol": "CCc1ccc(S(=O)(=O)N2CCC(n3c(-c4ccc(F)cc4F)nc4cccnc43)CC2)cc1", "Emax": "30 to 80%"}
{"Mol": "O=S(=O)(c1ccc2c(c1)OC(F)(F)O2)N1CCC(n2c(-c3ccncc3F)nc3cccnc32)CC1", "Emax": "30 to 80%"}
{"Mol": "CCc1ccc(S(=O)(=O)N2CCC(N(c3ccccn3)S(=O)(=O)c3ccc(C)cc3)CC2)cc1", "Emax": "10 to 30%"}
{"Mol": "O=C(c1ccccc1)N(c1ccccn1)C1CCN(S(=O)(=O)c2ccc3c(c2)OC(F)(F)O3)CC1", "Emax": "10 to 30%"}
{"Mol": "O=S(=O)(c1c[nH]cn1)N1CCC(n2c(-c3ccccc3)nc3cccnc32)CC1", "Emax": "10 to 30%"}
{"Mol": "CCc1ccc(S(=O)(=O)N2CCC(N(c3cc(C)ccn3)S(=O)(=O)c3ccccc3Cl)CC2)cc1", "Emax": "10 to 30%"}
{"Mol": "CCc1ccc(S(=O)(=O)N2CCC(N(C(=S)c3ccccc3)c3ccccn3)CC2)cc1", "Emax": "30 to 80%"}
{"Mol": "Cc1ccc2nc(-c3ccc(F)cc3F)n(C3CCN(S(=O)(=O)c4ccc5c(c4)OC(F)(F)O5)CC3)c2n1", "Emax": "30 to 80%"}
{"Mol": "Cc1ccc2nc(-c3ccccc3Cl)n(C3CCN(S(=O)(=O)c4ccc5c(c4)OC(F)(F)O5)CC3)c2n1", "Emax": "30 to 80%"}
{"Mol": "Cc1cc2cc(S(=O)(=O)N3CCC(n4c(-c5ccc(F)cc5F)nc5cccnc54)CC3)ccc2[nH]1", "Emax": "10 to 30%"}
{"Mol": "Cc1ccc2nc(-c3ncccc3Cl)n(C3CCN(S(=O)(=O)c4ccc5c(c4)OC(F)(F)O5)CC3)c2n1", "Emax": "30 to 80%"}
{"Mol": "Cc1ccnc2c1nc(-c1ccncc1F)n2C1CCN(S(=O)(=O)c2ccc3c(c2)OC(F)(F)O3)CC1", "Emax": "30 to 80%"}
{"Mol": "CCc1ccc(S(=O)(=O)N2CCC(n3c(-c4ccncn4)nc4ccc(C)nc43)CC2)cc1", "Emax": "30 to 80%"}
{"Mol": "CCc1ccc(S(=O)(=O)N2CCC(n3c(-c4ccncc4Cl)nc4cc(OC)ccc43)CC2)cc1", "Emax": "30 to 80%"}
{"Mol": "COc1ccc(S(=O)(=O)N2CCC(n3c(-c4ccncc4Cl)nc4cccnc43)CC2)cc1Cl", "Emax": "> 80%"}
